Entries and their IC50
Molecular target: Ghrelin receptor (Homo sapiens, UniProt Q92847)
Sequence (Q92847 whole entry): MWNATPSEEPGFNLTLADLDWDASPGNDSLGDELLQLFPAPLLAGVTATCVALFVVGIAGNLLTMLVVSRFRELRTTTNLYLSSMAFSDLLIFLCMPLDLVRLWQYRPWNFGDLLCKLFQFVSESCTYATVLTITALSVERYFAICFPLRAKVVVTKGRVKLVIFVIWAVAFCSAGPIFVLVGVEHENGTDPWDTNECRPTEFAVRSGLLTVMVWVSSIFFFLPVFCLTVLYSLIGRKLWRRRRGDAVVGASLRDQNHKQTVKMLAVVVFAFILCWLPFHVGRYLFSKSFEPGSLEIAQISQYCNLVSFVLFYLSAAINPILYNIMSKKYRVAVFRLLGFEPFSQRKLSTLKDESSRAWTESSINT
Experiment: Receptor Selection and Amplification Technology (R-SAT) assay
Assay type: cell-based
Parameters: expressed in transfected cells; host or cells: NIH3T3
Details: negative logarithm of ligand concentration causing 50% inhibition of constitutive receptor response; transfected NIH3T3 cells; '—' not defined (nd used separately); read-out: RSAT pIC50 (converted)
Entry rule: numbers only, all in nM.

Please review the following examples before continuing.
>>> readout_number("COc1cccc2c(C(C)=O)cn(CCCN3CCC4CCCCC4C3)c12 (stereo not drawn)")
1000
>>> readout_number("CC(=O)c1cn(CCCN2C3CCC2CC(OCC2CC2)C3)c2ccccc12 (stereo not drawn)")
1260
>>> readout_number("CC(=O)c1cn(CCCN2CCN(CCOc3ccccc3)CC2)c2c(Br)cccc12")
501
>>> readout_number("CC(=O)c1cn(CCCN2CCN(c3ncc(C(F)(F)F)cc3Cl)CC2)c2c(C#N)cccc12")
79.4

Problem: Look up and report measured IC50 for this entry: `CC(=O)c1cn(CCCN2CCC(Oc3ccc(Cl)cc3)CC2)c2c(C)cccc12`
Solution: 39.8

Problem: Look up and report measured IC50 for this entry: CC(=O)c1c(C)n(CCCN2C3CCC2CC(CC(=O)c2ccc(Cl)cc2)C3)c2c(Br)cccc12 (stereo not drawn)
Solution: 631
